Where do these numbers come from? They come from ChEMBL document CHEMBL1155063.

# Measured Target: Telomerase reverse transcriptase (Homo sapiens)
# Sequence (O14746 whole entry): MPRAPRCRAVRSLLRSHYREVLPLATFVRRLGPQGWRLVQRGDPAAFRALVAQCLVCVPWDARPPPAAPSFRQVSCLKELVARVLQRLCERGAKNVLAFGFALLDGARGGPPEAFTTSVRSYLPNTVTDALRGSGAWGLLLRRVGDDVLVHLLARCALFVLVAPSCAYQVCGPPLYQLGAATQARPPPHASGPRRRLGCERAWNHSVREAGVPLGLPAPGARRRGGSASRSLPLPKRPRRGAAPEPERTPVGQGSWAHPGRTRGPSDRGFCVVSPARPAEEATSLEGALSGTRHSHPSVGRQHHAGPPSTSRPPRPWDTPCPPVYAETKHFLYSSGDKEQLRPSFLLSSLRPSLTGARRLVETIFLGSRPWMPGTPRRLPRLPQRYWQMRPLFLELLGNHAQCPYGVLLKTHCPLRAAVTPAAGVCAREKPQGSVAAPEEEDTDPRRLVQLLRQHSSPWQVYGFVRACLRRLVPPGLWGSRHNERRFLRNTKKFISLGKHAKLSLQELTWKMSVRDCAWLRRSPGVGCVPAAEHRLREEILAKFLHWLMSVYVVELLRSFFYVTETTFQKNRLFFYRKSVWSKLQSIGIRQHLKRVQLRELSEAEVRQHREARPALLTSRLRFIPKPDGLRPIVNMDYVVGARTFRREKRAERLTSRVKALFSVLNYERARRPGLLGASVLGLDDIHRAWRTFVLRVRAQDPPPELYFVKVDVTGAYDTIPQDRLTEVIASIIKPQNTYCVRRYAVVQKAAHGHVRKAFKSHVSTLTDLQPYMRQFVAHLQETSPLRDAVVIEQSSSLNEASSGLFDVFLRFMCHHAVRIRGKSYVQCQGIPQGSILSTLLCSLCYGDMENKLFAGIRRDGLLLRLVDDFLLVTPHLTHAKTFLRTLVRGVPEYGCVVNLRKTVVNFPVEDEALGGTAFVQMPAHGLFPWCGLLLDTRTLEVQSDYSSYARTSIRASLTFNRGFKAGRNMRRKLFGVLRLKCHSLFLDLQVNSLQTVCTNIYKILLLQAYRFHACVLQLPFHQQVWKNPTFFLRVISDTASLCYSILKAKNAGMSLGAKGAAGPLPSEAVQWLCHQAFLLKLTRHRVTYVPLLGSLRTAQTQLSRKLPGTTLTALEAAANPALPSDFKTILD
# Assay Overview: Effect on human TERT expressed in H1299 cells at 10 uM after 24 hrs by SEAP assay relative to control
Classification field: satisfied = residual activity at or over 80%; not satisfied = residual activity under 80%.

Before answering, review these 2 worked examples.
>>> group_label("O=C(CN1CCCCC1)Nc1ccc2c(c1)C(=O)c1cc(NC(=O)CN3CCCCC3)ccc1C2=O")
"not satisfied"
>>> group_label("CN(C)CC(=O)Nc1ccc2c(c1)C(=O)c1cc(NC(=O)CN(C)C)ccc1C2=O")
"not satisfied"

Q. Quick check, residual activity >= 80%? `CCN(CC)CC(=O)Nc1ccc2c(c1)C(=O)c1cc(NC(=O)CN(CC)CC)ccc1C2=O`
A. not satisfied

Q. Next entry: `O=C(Nc1ccc2c(c1)C(=O)c1cc(NC(=O)c3ccccc3)ccc1C2=O)c1ccccc1`
A. satisfied
